- Test system: Leukemia K562 cell
- method-description: Leukemia K562 cell proliferation/viability assay (CellTiterGlo, 48 hours)
- Type: cell-based
- Set-up: unit not given here
- measurement-conditions: K562 cells
- From the text: C-Abl is encoded by the ABL1 gene (NCBI Gene ID NO. 25). […] Assays for determining if a small molecule inhibits c-Abl activity are known. Non-limiting examples include cell proliferation assays using cancer cells that are BCR-Abl positive and depend on BCR-Abl for growth, such as the leukemia cell line K562. […]
compounds and their reported Efficacy
Lab note: write the figure by itself, no unit.

In the examples that follow, each entry is paired with its recorded Efficacy.
The compound listed as `N#Cc1ccc2c(c1)NC(=O)c1cc(-c3ccnc(N4CCOCC4)c3)ccc1O2` has a reported Efficacy of −80.5

// field: Efficacy; key: `O=C1Nc2cc(OC(F)(F)F)ccc2Oc2ccc(-c3ccc(CN4CCNCC4)s3)cc21` ; value = −95.0

Memo: `O=C1Nc2cc(OC(F)(F)F)ccc2Oc2ccc(-c3cnn(CCO)c3)cc21` , reported Efficacy: −37.6

We now examine a further compound.
Reported Efficacy of `CNS(=O)(=O)c1cccc(-c2ccc3c(c2)C(=O)Nc2cc(OC(F)(F)F)ccc2O3)c1` : −78.5
